test system: cabbage butterfly; assay: Cabbage butterfly test (sprayed cabbage seedlings, II. stage larvae); type: in vivo; settings: Pieris brassicae; 50 EC composition, concentration 0.1%; read-out: Survival, nymph
Readout Name: survival at 0.1 % (%)
Provide the reading as a plain figure in %.

Please state recorded survival at 0.1 % (tested on cabbage butterfly) of CCOc1ccc2c(c1OC)OC(C)(C)C=C2 [Compound 87]
24

Quick check: survival at 0.1 % on cabbage butterfly, item CCC(C)Oc1cc(C)c2c(c1)OC(C)(C)C=C2 (centres unmarked) [Compound 20] ?
19

* * *

tested on: cabbage butterfly; assay: Cabbage butterfly test (sprayed cabbage seedlings, II. stage larvae); format: in vivo; conditions: Pieris brassicae; 50 EC composition, concentration 0.1%; read-out: Survival, nymph
Readout Name: survival at 0.1 % (%)
Lab book: enter the figure in %, no units written.

Illustrative cases are given below, each with its answer.
[[record]]
mol_smiles = "COc1c(OCC(C)C)ccc2c1OC(C)(C)C=C2"
units = "%"
recorded_measurement = 7

[[record]]
mol_smiles = "CCCOc1cc(OC)c2c(c1)OC(C)(C)C=C2"
units = "%"
recorded_measurement = 12

[[record]]
mol_smiles = "COc1cc(OC(C)C)cc2c1C=CC(C)(C)O2"
units = "%"
recorded_measurement = 13


For the molecule CCOc1cc(C)c2c(c1)OC(C)(C)C=C2 , what survival at 0.1 % is on record?
19

Tell me the measured survival at 0.1 % of C#CCOc1cc(C)c2c(c1)OC(C)(C)C=C2 , please.
17

Could you tell me which survival at 0.1 % is on file for COc1c(OC(C)C)ccc2c1OC(C)(C)C=C2 ?
36
